- SYSTEM_TESTED: Pax5(1-149) WT;Ets-1(331-440) (human;murine, UniProt Q02548;P27577 1-149;331-440, |)
- Sequence (Q02548 1-149, chain 1 of 2): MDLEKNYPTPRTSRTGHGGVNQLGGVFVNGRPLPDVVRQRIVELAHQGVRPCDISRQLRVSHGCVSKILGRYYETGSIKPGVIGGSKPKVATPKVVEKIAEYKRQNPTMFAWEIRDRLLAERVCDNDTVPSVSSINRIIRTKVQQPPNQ
- Sequence (P27577 331-440, chain 2 of 2): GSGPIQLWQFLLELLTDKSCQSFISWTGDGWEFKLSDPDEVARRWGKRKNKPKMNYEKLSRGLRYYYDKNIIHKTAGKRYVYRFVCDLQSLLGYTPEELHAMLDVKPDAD
- TEST_METHOD_NOTES: EMSA
PROPERTY_MEASURED: Kd (nM)
Dear colleague, please return just the value in nM, with no unit written.

Given the entry P5-EBS probe (dsDNA) DNA 1: TCGAAGGGCCACTGGAGCCCATCTCCGGCACGGC DNA 2: TCGAGCCGTGCCGGAGATGGGCTCCAGTGGCCCT , report its measured Kd.
0.89
